The molecules listed here are annotated with their T/C.
# System: P388 leukemia ip, CD2F1 mice, survival T/C
# measurement-protocol: NCI In Vivo Anticancer Drug Screen. Data for tumor model P388 Leukemia (intraperitoneal) in CD2F1 (CDF1) mice
# recorded-conditions: endpoint: median survival time; dose: 200.0 mg/kg/injection; schedule: Q01DX001 (ip); vehicle: saline with Tween-80; higher = longer survival
# Experimental: The antitumor activity of compounds was measured in mice bearing transplantable tumors. Survival or tumor size were measured and the results are expressed as the measurement made in the treated group (T) divided by the measurement made in the vehicle treated control group (C). The tumor model used in this assay is P388 Leukemia (intraperitoneal) in CD2F1 (CDF1) mice
Toxic doses and inconclusive results are not listed.

Worked set:
CN1CCC2(CC1)N=C1CCN(C)CC1S2 (centres undefined) ... 109 % of control
Cc1c2c(nc3ccccc13)-c1ccccc1C(C)(C)C2O (centres undefined) ... 106 % of control
C=C1OC(C2CCCCC2)=C(C(=O)OCC)C1C (centres undefined) ... 94 % of control
CCCc1nnc2n1NC1(CS2)Nc2ccccc2N1 ... 97 % of control
O=C(NCC1OC(n2cnc3c(=O)[nH]cnc32)C(O)C1O)c1ccc(S(=O)(=O)F)cc1 (centres undefined) ... 108 % of control

// next entry
(Q) Name the recorded T/C for NS(=O)(=O)c1ccc(NC(=O)Oc2ccc([N+](=O)[O-])cc2)cc1 .
(A) 100 % of control
